biological target: UniProtKB Q14289; assay: radiometric filter-binding kinase assay, Kinase HotSpot; details: compound 0.5 µM; ATP 10 µM
Sequence (Q14289 whole entry, looked up): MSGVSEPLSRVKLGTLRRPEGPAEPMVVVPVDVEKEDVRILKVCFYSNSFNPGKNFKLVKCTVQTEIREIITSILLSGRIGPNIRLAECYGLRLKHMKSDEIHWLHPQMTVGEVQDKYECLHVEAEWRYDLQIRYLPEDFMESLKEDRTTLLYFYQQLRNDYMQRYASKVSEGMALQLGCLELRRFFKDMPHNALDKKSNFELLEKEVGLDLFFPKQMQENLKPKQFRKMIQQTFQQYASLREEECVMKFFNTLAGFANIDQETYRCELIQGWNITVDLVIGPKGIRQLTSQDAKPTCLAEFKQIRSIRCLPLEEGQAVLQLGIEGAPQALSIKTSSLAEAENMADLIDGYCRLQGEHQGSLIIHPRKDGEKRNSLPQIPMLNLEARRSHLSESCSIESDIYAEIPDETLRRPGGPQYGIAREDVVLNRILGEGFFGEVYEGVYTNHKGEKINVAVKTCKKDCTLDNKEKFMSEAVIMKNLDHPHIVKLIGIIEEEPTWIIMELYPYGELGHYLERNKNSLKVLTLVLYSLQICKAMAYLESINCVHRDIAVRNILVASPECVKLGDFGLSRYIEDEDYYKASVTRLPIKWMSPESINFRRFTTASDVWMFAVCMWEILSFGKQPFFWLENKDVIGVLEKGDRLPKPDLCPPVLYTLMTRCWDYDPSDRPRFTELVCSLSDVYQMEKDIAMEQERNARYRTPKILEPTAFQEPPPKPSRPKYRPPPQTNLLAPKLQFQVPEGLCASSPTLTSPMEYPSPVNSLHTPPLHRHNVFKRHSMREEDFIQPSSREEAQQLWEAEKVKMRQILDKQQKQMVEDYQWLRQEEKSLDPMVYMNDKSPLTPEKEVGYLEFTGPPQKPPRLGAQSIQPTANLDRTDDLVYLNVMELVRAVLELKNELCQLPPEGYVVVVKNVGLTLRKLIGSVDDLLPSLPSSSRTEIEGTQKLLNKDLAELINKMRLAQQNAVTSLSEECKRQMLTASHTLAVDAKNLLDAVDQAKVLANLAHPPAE
# criterion met = residual activity below 90% (exclusive); criterion not met = residual activity at/above 90%

[[record]]
item_smiles = "O=C(c1cc2cc(O)ccc2[nH]1)c1cc2cc(O)ccc2[nH]1"
cat = "criterion met"

[[record]]
item_smiles = "COc1cc(Nc2c(C#N)cnc3cc(OCCCN4CCN(C)CC4)c(OC)cc23)c(Cl)cc1Cl"
cat = "criterion met"

[[record]]
item_smiles = "CCCCc1c(-c2ccc(OC)cc2)[nH]c2nccnc12"
cat = "criterion not met"


Ask | Determine if O=C1c2ccccc2-c2nc3nnnn3nc21 shows residual activity strictly lower than 90%.
Reply | criterion met

---

Measured residual activity, listed per entry.
target: FGFR2 (human); experiment: radiometric filter-binding kinase assay, Kinase HotSpot; settings: compound 0.5 µM; ATP 10 µM
// return numeric value only (unit: %, not printed)

Some entries whose results are on file:
[[record]]
item_smiles = "CN(C)CCCn1cc(C2=C(c3c[nH]c4ccccc34)C(=O)NC2=O)c2ccccc21"
measure_name = "residual activity"
observed_value = 95.4

[[record]]
item_smiles = "O=C(c1cc2cc(O)ccc2[nH]1)c1cc2cc(O)ccc2[nH]1"
measure_name = "residual activity"
observed_value = 98.5

[[record]]
item_smiles = "O=C1NC(=O)c2c1c1c3ccccc3[nH]c1n1cncc21"
measure_name = "residual activity"
observed_value = 91.3

[[record]]
item_smiles = "COc1cc2ncnc(Nc3ccc(OCc4ccccc4)cc3)c2cc1OC"
measure_name = "residual activity"
observed_value = 103

[[record]]
item_smiles = "Fc1ccc(-c2nc3n(c2-c2ccncc2)CCS3)cc1"
measure_name = "residual activity"
observed_value = 106

[[record]]
item_smiles = "COc1ccc(S(=O)(=O)N(CCO)c2ccccc2CN(C)C/C=C/c2ccc(Cl)cc2)cc1"
measure_name = "residual activity"
observed_value = 98.6


So for Cc1cncc2cccc(S(=O)(=O)N3CCCN(C(=O)CN)C[C@H]3C)c12 , the logged residual activity turned out to be 98.4

---

biological target: UniProt:P51812; experiment: radiometric filter-binding kinase assay, Kinase HotSpot; details: compound 0.5 µM; ATP 10 µM
Sequence (P51812 whole entry, looked up): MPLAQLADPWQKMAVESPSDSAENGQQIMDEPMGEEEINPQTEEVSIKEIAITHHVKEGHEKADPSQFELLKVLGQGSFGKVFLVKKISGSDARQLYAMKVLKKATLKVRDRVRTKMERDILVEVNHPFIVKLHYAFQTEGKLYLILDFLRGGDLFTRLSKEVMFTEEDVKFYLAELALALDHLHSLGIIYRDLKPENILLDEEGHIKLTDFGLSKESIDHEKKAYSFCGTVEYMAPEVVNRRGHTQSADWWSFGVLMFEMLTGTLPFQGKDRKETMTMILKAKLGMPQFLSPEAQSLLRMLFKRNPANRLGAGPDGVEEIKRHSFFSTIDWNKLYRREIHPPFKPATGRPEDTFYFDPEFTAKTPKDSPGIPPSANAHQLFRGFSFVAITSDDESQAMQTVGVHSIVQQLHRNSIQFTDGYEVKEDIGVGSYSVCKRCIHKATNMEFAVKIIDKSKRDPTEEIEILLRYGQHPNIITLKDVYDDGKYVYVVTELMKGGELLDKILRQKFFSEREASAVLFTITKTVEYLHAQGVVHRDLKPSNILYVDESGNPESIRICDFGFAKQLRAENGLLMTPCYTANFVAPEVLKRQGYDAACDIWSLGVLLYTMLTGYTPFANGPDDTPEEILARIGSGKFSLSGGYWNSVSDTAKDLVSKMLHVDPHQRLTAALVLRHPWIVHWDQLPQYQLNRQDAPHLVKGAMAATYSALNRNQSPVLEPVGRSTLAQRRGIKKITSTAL
Measured residual activity, listed per entry.

Some entries whose results are on file:
[[record]]
item_smiles = "Cc1cncc2cccc(S(=O)(=O)N3CCCN(C(=O)CN)C[C@H]3C)c12"
observed_value = "91.8%"

[[record]]
item_smiles = "O=C1NC(=O)c2c1c1c3ccccc3[nH]c1n1cncc21"
observed_value = "47.4%"

[[record]]
item_smiles = "C[C@@H]1CCN(C(=O)CC#N)C[C@@H]1N(C)c1ncnc2[nH]ccc12"
observed_value = "97%"

[[record]]
item_smiles = "COc1cc2ncnc(Nc3ccc(Oc4ccccc4)cc3)c2cc1OC"
observed_value = "97.8%"

[[record]]
item_smiles = "Cc1cccc(-c2nc(C(C)(C)C)[nH]c2-c2ccc3c(c2)OCO3)n1"
observed_value = "82.4%"


So for O=C1C(Cl)=C(N2C(=O)CCC2=O)C(=O)c2ccccc21 , the logged residual activity turned out to be 101%

So for O=C(c1cc2cc(O)ccc2[nH]1)c1cc2cc(O)ccc2[nH]1 , the logged residual activity turned out to be 37.7%

So for COc1cc2ncnc(Nc3ccc(OCc4ccccc4)cc3)c2cc1OC , the logged residual activity turned out to be 103%

So for CN(C)CCCn1cc(C2=C(c3c[nH]c4ccccc34)C(=O)NC2=O)c2ccccc21 , the logged residual activity turned out to be 2.47%
